- assay protocol: Volume of distribution at steady state in cynomolgus monkey at 1 mg/kg, iv or 5 mg/kg, po administered via gavage measured upto 24 hrs by LC-MS/MS
- Format: ADME, organism-based, Macaca fascicularis
- condition details: in vivo, read-out: Vdss
measured attribute: Vd (L/kg)
Express it in L/kg; write the number only.

What does the record list as Vd for NC(C(=O)N[C@@](Cc1ccccc1)(c1cc(F)cc(OC(F)(F)C(F)F)c1)c1ccc(F)c(OC2CC2)c1)C(O)(C(F)(F)F)C(F)(F)F (stereo partly specified) ?
3.7

###

- assay system: Voltage-gated inwardly rectifying potassium channel KCNH2 (Homo sapiens)
- Sequence (Q12809 whole entry): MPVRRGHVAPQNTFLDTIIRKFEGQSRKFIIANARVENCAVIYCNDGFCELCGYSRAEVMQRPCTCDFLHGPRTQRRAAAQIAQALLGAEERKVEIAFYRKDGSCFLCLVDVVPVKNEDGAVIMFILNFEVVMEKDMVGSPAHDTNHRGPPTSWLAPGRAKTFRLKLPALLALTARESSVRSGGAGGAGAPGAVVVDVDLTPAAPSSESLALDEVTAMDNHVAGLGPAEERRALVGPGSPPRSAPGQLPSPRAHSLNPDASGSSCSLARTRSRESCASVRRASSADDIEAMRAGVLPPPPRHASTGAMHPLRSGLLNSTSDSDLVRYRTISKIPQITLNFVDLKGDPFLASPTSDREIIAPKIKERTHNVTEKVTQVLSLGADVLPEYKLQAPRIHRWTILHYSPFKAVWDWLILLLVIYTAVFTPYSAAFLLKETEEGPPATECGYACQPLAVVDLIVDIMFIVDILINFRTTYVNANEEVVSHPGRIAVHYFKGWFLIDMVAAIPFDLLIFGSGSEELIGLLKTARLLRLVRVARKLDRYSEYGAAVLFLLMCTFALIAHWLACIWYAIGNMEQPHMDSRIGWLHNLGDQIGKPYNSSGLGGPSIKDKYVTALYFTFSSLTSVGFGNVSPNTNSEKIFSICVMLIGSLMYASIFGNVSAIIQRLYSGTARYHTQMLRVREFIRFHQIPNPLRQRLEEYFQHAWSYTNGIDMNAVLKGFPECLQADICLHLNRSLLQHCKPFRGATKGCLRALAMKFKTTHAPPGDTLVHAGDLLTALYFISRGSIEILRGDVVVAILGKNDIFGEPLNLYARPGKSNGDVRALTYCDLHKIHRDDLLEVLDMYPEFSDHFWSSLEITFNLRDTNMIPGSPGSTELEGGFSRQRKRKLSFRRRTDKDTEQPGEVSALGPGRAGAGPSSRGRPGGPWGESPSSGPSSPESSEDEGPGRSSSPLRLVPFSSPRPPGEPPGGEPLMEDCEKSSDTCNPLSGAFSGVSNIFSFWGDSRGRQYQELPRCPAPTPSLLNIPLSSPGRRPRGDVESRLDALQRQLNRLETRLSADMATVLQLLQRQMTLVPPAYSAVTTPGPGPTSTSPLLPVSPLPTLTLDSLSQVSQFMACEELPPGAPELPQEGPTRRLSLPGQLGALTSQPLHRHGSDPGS
- assay protocol: Inhibition of human ERG expressed in HEK293 cells by flux assay
measured attribute: pIC50
pIC50 (log units): -log10 of the concentration in mol/L.

Field request: pIC50 | item: O=C(CC(O)(C(F)(F)F)C(F)(F)F)N[C@@](Cc1ccccc1)(c1cc(F)cc(C(F)(F)F)c1)c1ccc(Cl)cn1
4.66

Give the measured pIC50 of CC(C)Oc1cc([C@@](Cc2ccccc2)(NC(=O)C(N)C(O)(C(F)(F)F)C(F)(F)F)c2cc(F)cc(OC(F)(F)C(F)F)c2)ccc1F (stereo partly drawn) .
4.36
